Molecular target: human MC3 receptor (Homo sapiens)
Construct: stably transfected with full length cDNA encoding human MC1 or MC3 receptors; 'respectively')
Sequence (P41968 whole entry): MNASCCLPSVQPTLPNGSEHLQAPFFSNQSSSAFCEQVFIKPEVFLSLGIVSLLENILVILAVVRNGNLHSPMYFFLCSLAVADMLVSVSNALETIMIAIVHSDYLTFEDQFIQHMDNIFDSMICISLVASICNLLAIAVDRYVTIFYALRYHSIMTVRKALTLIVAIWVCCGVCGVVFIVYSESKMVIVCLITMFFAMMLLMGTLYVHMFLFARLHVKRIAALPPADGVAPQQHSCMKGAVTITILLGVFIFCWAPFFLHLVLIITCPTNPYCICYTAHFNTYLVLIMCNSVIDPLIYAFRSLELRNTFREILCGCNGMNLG
Experiment: In vitro agonist potency (EC50) against melanocortin receptor type 3, cAMP in recombinant cell line
Conditions: cell line stably transfected with human MC3, 1 hour at 37° C.
assay-readout: EC50

The following compounds have reported results that may help.
>  <compound>
COc1ccc([C@@H]2CN(c3ccc(Cl)nn3)C[C@H]2C(=O)N2C[C@@H](C)[C@](O)(c3ccc(F)cc3)[C@@H](C)C2)nc1 [Example 44]

>  <EC50>
> 9.63 µM

$$$$
>  <compound>
C[C@@H]1CN(C(=O)[C@@H]2CN(c3ccc(=O)n(C)n3)C[C@H]2c2ccc(Cl)cn2)C[C@H](C)[C@@]1(O)C1CC1 [Example 18]

>  <EC50>
> 8.52 µM

$$$$

We now examine a further compound.
In plain terms, COc1ccc(C2CN(c3ccc(=O)[nH]n3)CC2C(=O)N2CC(C)C(O)(c3ccc(F)cc3)C(C)C2)nc1 (stereo not drawn) [Example 42] has a documented EC50 of > 20.3 µM
